Test system: red mites (Dermanyssus gallinae)
TEST_PROTOCOL: Test Example 1: controlling effect on red mites, Pasteur pipette treated with acetone solution
Format: in vivo
CONDITION_SUMMARY: 100 ppm, 48 hours later, unfed adult red mites
READOUT_LABEL: Ratio of dead and affected mites (%)
Give a bare numeral; the unit % is implied.

Consider the reported Ratio of dead and affected mites for these compounds:
INSERT INTO assay_data (compound, unit_name, endpoint_result) VALUES
  ('CC(=O)Oc1c(C)c(C)nc2c(C)cc(C(C)(C)C)cc12', '%', 100),
  ('CC(=O)Oc1c(C)c(C)nc2c(C)cc(Br)cc12', '%', 95),
  ('CC(=O)Oc1c(C)c(C)nc2c(C)cc(F)cc12', '%', 100);

The recorded Ratio of dead and affected mites for entry CC1(C)C(C=C(Cl)Cl)C1C(=O)OCc1cccc(Oc2ccccc2)c1 (stereo not shown) equals 6

====

# reported Ratio of dead and affected mites; entries follow
Test system: red mites (Dermanyssus gallinae)
TEST_PROTOCOL: Test Example 4: controlling effect on red mites, Pasteur pipette treated with acetone solution
Type: in vivo
CONDITION_SUMMARY: 5000 ppm, 24 hours after treatment, unfed adult red mites
Experimental: The tip of a Pasteur pipette was sealed with Parafilm, and an acetone solution (liquid agent) of each of the samples shown in Table 5 below diluted to a predetermined concentration was poured into the pipette through an upper portion thereof. One minute later, the Parafilm at the tip was detached, and the liquid agent was discharged. […] Then, the ratio (%) of dead and affected mites was calculated according to the following formula. […]
The reply should consist of the numeric value with the unit placed after it.

The recorded Ratio of dead and affected mites for entry Cc1nn(C)c(F)c1C(=O)Nc1ccccc1C(C)CC(C)C (centres unmarked) equals 20.5%

The recorded Ratio of dead and affected mites for entry Cc1nn(C)c(Cl)c1C(=O)Nc1cccc2c1C(C)OC2(C)C (centres unmarked) equals 56.1%

The recorded Ratio of dead and affected mites for entry CO/C=C(/C(=O)OC)c1ccccc1Oc1cc(Oc2ccccc2C#N)ncn1 equals 55.2%

The recorded Ratio of dead and affected mites for entry CNC(=O)/C(=N/OC)c1ccccc1CO/N=C(C)/C(=N/OC)C(/C)=N/OC equals 82.6%

The recorded Ratio of dead and affected mites for entry Cc1cc(OC(C)C)ccc1C(=O)C(C)(C)NC(=O)c1sccc1C equals 17.4%

The recorded Ratio of dead and affected mites for entry Cc1c(Br)c2ccc(F)cc2n1S(=O)(=O)c1ncn(S(=O)(=O)N(C)C)n1 equals 92.9%

The recorded Ratio of dead and affected mites for entry CO/C=C(/C(=O)OC)c1ccccc1COc1cccc(C(F)(F)F)n1 equals 80.5%

The recorded Ratio of dead and affected mites for entry Cn1cc(C(=O)Nc2ccccc2-c2cc(F)c(F)c(F)c2)c(C(F)F)n1 equals 61.3%

====

Tested on: red mites (Dermanyssus gallinae)
TEST_PROTOCOL: Test Example 4: controlling effect on red mites, Pasteur pipette treated with acetone solution
Assay type: in vivo
CONDITION_SUMMARY: Dermanyssus gallinae, 24 hours after treatment, unfed adult red mites, read-out: Ratio of dead and affected mites
Classification field. Basis: pest or weed control at 5000 ppm. Definitions: Low = under 40%, Mid = from 40% up to 80%, High = 80% and over

INSERT INTO measurements (compound, label_value) VALUES
  ('COC(=O)NCc1cc(/C(C)=N/OCc2cccc(C)n2)ccc1Cl [Pyribencarb]', 'Low'),
  ('CC1=C(C(=O)Nc2ccccc2)SCCO1 [Carboxin]', 'Mid');

In: Which pest or weed control at 5000 ppm category applies to Cc1nn(C)c(Oc2ccccc2)c1C=NOCc1ccc(C(=O)OC(C)(C)C)cc1 [Fenpyroximate] here?
Out: High

In: Which pest or weed control at 5000 ppm category applies to COC(=O)N(OC)c1ccccc1COc1ccn(-c2ccc(Cl)cc2)n1 [Pyraclostrobin] here?
Out: Mid

In: Which pest or weed control at 5000 ppm category applies to CC(C)CC(C)c1sccc1NC(=O)c1cn(C)nc1C(F)(F)F (stereo not drawn) [Penthiopyrad] here?
Out: Low
